We begin with a simple list: items and their reported TGI.
System: UO-31 renal
PROCEDURE_TEXT: NCI tumour cell line growth inhibition, 48 h
I only need the number, in µM, no unit after it.

Before answering, review these 3 worked examples.
Clc1ccccc1NN(Cc1ccccn1)c1ccccc1Cl: 34.8
COc1cc(/C=C2\CN(C)CC3=C2Nc2nc(SC)[nH]c(=O)c2C3c2cc(OC)c(OC)c(OC)c2)cc(OC)c1OC (stereo unspecified): 3.44
Cc1ccc(C(=O)Nc2ccc(CN3CCN(C)CC3)c(C(F)(F)F)c2)cc1C#Cc1cnc(N)c2ccc(F)cc12: 0.748

Notebook: C=C1CC(COc2ccc3c(C)c(C)c(=O)oc3c2C)(c2ccccc2)OC1=O (stereo unspecified) , TGI read as 7

Notebook: COC(=O)C1=C(C)NC(C)=C(C(=O)OC)C1c1cccc(N=O)c1 , TGI read as 21

Notebook: CSc1ccc(C2=Nn3c(nnc3-c3ccc(F)c(Cl)c3)SC2)cc1 , TGI read as 43.7

Notebook: CCc1nc(N)nc(N)c1-c1ccc([N+](=O)[O-])c(NCc2ccccc2)c1 , TGI read as 22.2

Notebook: CCOC(=O)c1c(NC(=O)c2ccc(C(C)C)cc2)sc2c(CN(C)C)c(O)ccc12 , TGI read as 2.82

Notebook: CC(=O)N(C)c1ccc(Nc2ccnc3ccc4nn(C)nc4c23)cc1 , TGI read as 29.2

Notebook: CN(C)c1ccc(/C=c2/c3ccccc3n3c2cc(-c2ccccc2)[n+]3C)cc1 , TGI read as 2.35

FYI, the data here is from PubChem BioAssay (NCI).
